Data provenance is ChEMBL document CHEMBL1201862.

- Test system: HCC 2998
- assay protocol: NCI tumour cell line growth inhibition, 48 h
The source made the active and inactive calls. Cut-off read from the data, not from the text of the source: active = GI50 up to about 1.1 µM and inactive = higher.
endpoint name: GI50

Known GI50 results, listed for orientation:
CC1=C2C(=C[C@H]3[C@]4(C)CCCC(C)(C)[C@H]4CC[C@]34O[C@H]24)OC1=O    > 100 µM (inactive)
C/C(=N\NC(=S)NCc1ccccc1)c1nc2cccnc2[nH]1    20.1 µM (inactive)
CCOC(=O)NC(=O)c1cn(C2CCCCC2)c(=O)[nH]c1=O    53.6 µM (inactive)
COc1cccc2c(Nc3ccc(S(=O)(=O)N=C(N)N)cc3)c3ccc([N+](=O)[O-])cc3nc12    3.23 µM (inactive)
C[C@]12CC[C@H](O)CC1=CC[C@@H]1[C@@H]2CC[C@]2(C)/C(=N/OCCN3CCCC3)CC[C@@H]12    22.3 µM (inactive)
C[n+]1c2ccccc2c(CNc2ccc(S(=O)(=O)N=C(N)N)cc2)c2ccccc21    15.1 µM (inactive)
Cc1ccc(OC2CC(n3cnc4ncnc(Cl)c43)OC2Oc2ccc(C)cc2)cc1 (stereo not given)    8.04 µM (inactive)
CCc1cccc(CC)c1NC(=O)C(=O)Cc1nc2ccccc2o1    > 100 µM (inactive)

Any idea what its GI50 is? The compound is `CCN(CC)C1=Nc2ccccc2-n2c(C)cnc2C1`
> 100 µM (inactive)

Would you kindly repeat that for `Clc1cc2nc[nH]c2cc1Cl` ?
> 100 µM (inactive)
